Please provide measured log10 IC50 for the entries that follow.
systemUnderTest: HLA-A*02:06
measurementNotes: IEDB peptide-MHC binding, purified MHC/competitive/radioactivity; bounds were set here for any values at or beyond the usual limits of such assays
details: source organism: Vaccinia virus WR
Please interpret these as log10 of IC50 where IC50 is in nM.

Illustrative cases are given below, each with its answer.
>>> experimentalresult("LVAEHRFENM")
2.86
>>> experimentalresult("DINVIGLIVI")
3.45
>>> experimentalresult("KASTISWMM")
2.90

For each of the sequences below, note its log10 IC50.
1. PTILATLNTL
2. KLYGYASLTT
3. TVQEFIFSAL
4. YAVLSEYET
5. IVSRSSRGV
6. LVIRNEVNDT
7. IVNTTYDFL
8. NASKFVYVSV

1. 2.89
2. 1.53
3. 1.64
4. 3.12
5. 2.68
6. 3.34
7. 3.48
8. 2.92

====

systemUnderTest: HLA-A*68:02
measurementNotes: IEDB peptide-MHC binding, purified MHC/competitive/radioactivity; bounds were set here for any values at or beyond the usual limits of such assays
details: source organism: Vaccinia virus WR
Please provide measured pIC50 for the entries that follow.
Give bare numbers, as −log10 of the molar value.

Illustrative cases are given below, each with its answer.
>>> experimentalresult("TTENAAYQV")
6.73
>>> experimentalresult("SLEATFIDV")
7.64
>>> experimentalresult("RIITILQDIV")
6.54
>>> experimentalresult("MIYDLNAVTT")
6.94
>>> experimentalresult("YVILKDPRI")
6.07

For each of the sequences below, note its pIC50.
1. NIEIMDKEQL
2. NIPELKHGLL
3. RLQMAGVEV
4. LLNETAKVI
5. FLRPVLKAM

1. 5.86
2. 7.00
3. 5.60
4. 6.06
5. 5.61

So what does the record say about pIC50 for `ETIEILRNYL` ?
9.89

====

systemUnderTest: HLA-A*02:01
measurementNotes: IEDB peptide-MHC binding, purified MHC/competitive/radioactivity; bounds were set here for any values at or beyond the usual limits of such assays
details: source organism: Vaccinia virus WR
pIC50: −log10 of the molar value.
Values of pIC50 greater than or equal to 7 map to rule met; values below map to rule not met.

>>> answerlabel("GIYNCCESNI")
"rule not met"

Reported pIC50 at or above 7? `SIFGFQAEV`
rule met

Also need `GLHCDFACLM` , thanks.
rule not met

Also need `HILHAYCGI` , thanks.
rule not met

Also need `YLVIYLNRT` , thanks.
rule not met

Also need `LIVLFEVFVV` , thanks.
rule not met

Also need `MITMSAFLIV` , thanks.
rule not met

====

systemUnderTest: HLA-A*02:02
measurementNotes: IEDB peptide-MHC binding, purified MHC/competitive/radioactivity; bounds were set here for any values at or beyond the usual limits of such assays
details: source organism: Mammarenavirus machupoense
Mark Condition met only when IC50 stays strictly below 0.06 µM. Values equal to the cut-off are Condition not met.

Answered cases to consult:
>>> answerlabel("LNVSYLCHL")
"Condition not met"
>>> answerlabel("KSYFTNAAL")
"Condition not met"
>>> answerlabel("LNIALVAVSL")
"Condition not met"
>>> answerlabel("ALNIALVAV")
"Condition met"
>>> answerlabel("LLDCIMYQS")
"Condition not met"
>>> answerlabel("KSFFWFNEV")
"Condition not met"
>>> answerlabel("GLSQFTHTV")
"Condition met"
>>> answerlabel("SSWAVHWFS")
"Condition not met"

Input `AMPGVLSYV` ; condition: IC50 strictly below 0.06 µM. Does it hold?
Condition met

Also need `LNKSDSSWAV` , thanks.
Condition not met

====

systemUnderTest: HLA-A*02:06
measurementNotes: IEDB peptide-MHC binding, purified MHC/competitive/radioactivity; bounds were set here for any values at or beyond the usual limits of such assays
details: source organism: SARS-CoV1
readout: log10 IC50 (log10 of the value in nM)
Please interpret these as log10 of IC50 where IC50 is in nM.

>>> experimentalresult("LVFLWLLWPV")
-0.25
>>> experimentalresult("LLALQQLEV")
1.62
>>> experimentalresult("VMYASALVLL")
1.61

For each of the sequences below, note its log10 IC50.
1. FLIVAALVFL
2. MLLTFLTSLL
3. FLYIIKLVFL
4. TLGVYDYLV
5. NLLLLFVTI

1. 0.56
2. 1.40
3. 2.94
4. 1.88
5. 2.66

For each of the sequences below, note its log10 IC50.
1. ALLFLMSFT
2. YLLGLSAIM
3. KLWAQCVQL
4. ILFLTLIVFT
5. LAFVVFLLV
6. FLFLAWIML
7. TLDAANHSI
8. ILASFSAST

1. 2.11
2. 0.51
3. 0.98
4. 2.85
5. 2.40
6. 1.57
7. 1.46
8. 2.66

For each of the sequences below, note its log10 IC50.
1. FLWLLWPVTL
2. TQWSLFFFV

[1.45, -0.09]

For each of the sequences below, note its log10 IC50.
1. GLIAIVMVTI
2. FVDGVPFVV
3. YIWKSYVHI

[2.14, -0.04, 0.95]

====

systemUnderTest: HLA-A*01:01
measurementNotes: IEDB peptide-MHC binding, cellular MHC/competitive/fluorescence; bounds were set here for any values at or beyond the usual limits of such assays
details: source organism: Vaccinia virus WR
Please provide measured pIC50 for the entries that follow.
Answers are plain numbers, as −log10 of the molar value.

Illustrative cases are given below, each with its answer.
>>> experimentalresult("EQRRSTIFDI")
4.75
>>> experimentalresult("VQTIVFIWFI")
5.29

Turning now to a further record.
So what does the record say about pIC50 for `VQYRILPMII` ?
4.46

====

Please provide measured IC50 for the entries that follow.
systemUnderTest: HLA-A*02:01
measurementNotes: IEDB peptide-MHC binding, purified MHC/competitive/radioactivity; bounds were set here for any values at or beyond the usual limits of such assays
details: source organism: Vaccinia virus WR
The reply must contain the numeric value and, after it, the unit.

>>> experimentalresult("HVLLPFYET")
"2490 nM"
>>> experimentalresult("RLSLNRTIV")
"849 nM"
>>> experimentalresult("KISLDISQL")
"2280 nM"
>>> experimentalresult("IAVSVYGAI")
"884 nM"

For each of the sequences below, note its IC50.
1. CVSNLDISSV
2. VMHINSPFKV
3. YIIDKDTNSV
4. IIAVFDSKL
5. KLPTLFGRGV
6. TILATLNTLI

1480 nM
13 nM
30 nM
1760 nM
273 nM
184 nM

For each of the sequences below, note its IC50.
1. FMSHVKSVT
2. KTSTLIFFV
3. LALWDSNFFT
4. ALKAYFTAKI
5. TLLGLILFVL
6. AIFTDASTV
7. VMAYVGIKL
8. YTIERIFNA

["873 nM", "1 nM", "815 nM", "1600 nM", "35 nM", "697 nM", "1300 nM", "0.56 nM"]

====

systemUnderTest: HLA-A*02:03
measurementNotes: IEDB peptide-MHC binding, purified MHC/competitive/radioactivity; bounds were set here for any values at or beyond the usual limits of such assays
details: source organism: Hepacivirus hominis
Please provide measured pIC50 for the entries that follow.
Answers are plain numbers, as −log10 of the molar value.

>>> experimentalresult("YLVTRNADV")
7.21

For each of the sequences below, note its pIC50.
1. SMGNTLTCYV
2. ALMIAAQVVV
3. VLAGYGAGI
4. ALLSCISVPV

7.41
7.15
7.74
7.37

For each of the sequences below, note its pIC50.
1. ALLRMCALV
2. YTLLGCWSFV
3. LLSCISVPV

[7.19, 6.77, 8.33]

====

systemUnderTest: HLA-A*02:03
measurementNotes: IEDB peptide-MHC binding, cellular MHC/competitive/fluorescence; bounds were set here for any values at or beyond the usual limits of such assays
details: source organism: Hepatitis B virus
readout: IC50 (µM)
Numbers only, in µM.

Illustrative cases are given below, each with its answer.
>>> experimentalresult("SMYPSCCCT")
5.52
>>> experimentalresult("RILTIPQSL")
9.77
>>> experimentalresult("VLLDYQGML")
22.6
>>> experimentalresult("LLVPFVQWFV")
10.5
>>> experimentalresult("CLRRFIIFL")
14.6
>>> experimentalresult("LLVLLDYQGM")
5.58

For each of the sequences below, note its IC50.
1. KVGAGAFGL
2. HQLDPAFRA

1. 34.7
2. 55.9

====

systemUnderTest: HLA-A*68:02
measurementNotes: IEDB peptide-MHC binding, cellular MHC/competitive/fluorescence; bounds were set here for any values at or beyond the usual limits of such assays
details: source organism: Vaccinia virus WR
pIC50: −log10 of the molar value.
Values of pIC50 greater than or equal to 5 map to met; values below map to not met.

Reported pIC50 at or above 5? `GMYYPTNDI`
not met

Also need `KADAVVADL` , thanks.
not met

Also need `LLNMRDLIV` , thanks.
not met

Also need `PLSPDTCLLA` , thanks.
not met

Also need `KVEKYLPEVI` , thanks.
not met

Also need `TLVPVLEKKV` , thanks.
not met
